Listed here are compounds together with their documented MTD at 17 days.
# protocol-summary: MTD (maximum tolerated dose) acute toxicity in mice
# Format: in vivo, mouse
# recorded-conditions: female, mouse, in vivo; BALB/C mice, intravenous, observed 17 days
# Text: Test purpose: to investigate the acute toxicity of highly activated compounds by targeted site molecules of the invention by measuring the MTD (maximum tolerated dose) experiment in mice. The injections of each drug and the control drug were uniformly dissolved using water for injection, and diluted to the corresponding dose with physiological saline during the test. Methods and results: […] BALB/C mice, weighing 19-21 g, were randomly divided into 10 groups, with 10 mice in each group. […]
Residues, ends and D or L forms follow the SMILES beside them. *: point of attachment. Doxorubicin(3'-N) = COc1cccc2c1C(=O)c1c(O)c3c(c(O)c1C2=O)C[C@@](O)(C(=O)CO)C[C@@H]3O[C@H]1C[C@H](N*)[C@H](O)[C@H](C)O1; X1 = CN(CCNC(=O)c1cc(Oc2ccc(NC(=O)Nc3ccc(Cl)c(C(F)(F)F)c3)cc2)ccn1)*; Hexanoyl(6-maleimido) = O=C1C=CC(=O)N1CCCCCC(=O)*
experimental-endpoint: MTD at 17 days (mg/kg)

[[record]]
compound = "COc1cccc2c1C(=O)c1c(O)c3c(c(O)c1C2=O)C[C@@](O)(C(=O)CO)C[C@@H]3O[C@H]1C[C@H](NC(=O)[C@H](CC(C)C)NC(=O)[C@H](CC(N)=O)NC(=O)[C@H](C)NC(=O)[C@H](C)NC(=O)CCCCCN2C(=O)C=CC2=O)[C@H](O)[C@H](C)O1 [Compound C11, EMC-AANL-Adriamycin, reference compound] ({Hexanoyl(6-maleimido)}-AANL-{Doxorubicin(3'-N)})"
units_symbol = "mg/kg"
assay_result = 110

[[record]]
compound = "CC(NC(=O)C(C)NC(=O)[C@H](O)[C@H](O)[C@@H](O[C@@H]1O[C@H](CO)[C@H](O)[C@H](O)[C@H]1O)[C@H](O)CO)C(=O)NC(CC(N)=O)C(=O)Nc1ccc(COC(=O)N(C)CCNC(=O)c2cc(Oc3ccc(NC(=O)Nc4ccc(Cl)c(C(F)(F)F)c4)c(F)c3)ccn2)cc1 (stereo partly shown)"
units_symbol = "mg/kg"
assay_result = 300

[[record]]
compound = "CC(C)C[C@H](NC(=O)[C@H](CC(N)=O)NC(=O)[C@H](C)NC(=O)[C@H](C)N)C(=O)N(C)CCNC(=O)c1cc(Oc2ccc(NC(=O)Nc3ccc(Cl)c(C(F)(F)F)c3)cc2)ccn1 [Compound C1, AANL-Compound a, reference compound] (H-AANL-X1)"
units_symbol = "mg/kg"
assay_result = 65

[[record]]
compound = "COc1cccc2c1C(=O)c1c(O)c3c(c(O)c1C2=O)C[C@](O)(C(=O)CO)CC3OC1C[C@H](NC(=O)OCc2ccc(NC(=O)C(CC(N)=O)NC(=O)C(C)NC(=O)C(NC(=O)[C@H](O)[C@H](O)[C@@H](O[C@@H]3O[C@H](CO)[C@H](O)[C@H](O)[C@H]3O)[C@H](O)CO)C(C)O)cc2)[C@H](O)[C@H](C)O1 (stereo partly shown)"
units_symbol = "mg/kg"
assay_result = 90

[[record]]
compound = "CC(NC(=O)C(NC(=O)[C@H](O)[C@H](O)[C@@H](O[C@@H]1O[C@H](CO)[C@H](O)[C@H](O)[C@H]1O)[C@H](O)CO)C(C)C)C(=O)NC(CC(N)=O)C(=O)Nc1ccc(COC(=O)Nc2nccc(-c3sc(C(C)(C)C)nc3-c3cccc(NS(=O)(=O)c4c(F)cccc4F)c3F)n2)cc1 (stereo partly shown)"
units_symbol = "mg/kg"
assay_result = 310

[[record]]
compound = "CC(NC(=O)C(C)NC(=O)[C@H](O)[C@H](O)[C@@H](O[C@@H]1O[C@H](CO)[C@H](O)[C@H](O)[C@H]1O)[C@H](O)CO)C(=O)NC(CC(N)=O)C(=O)Nc1ccc(COC(=O)N(C)CCNC(=O)c2cc(Oc3ccc(NC(=O)Nc4ccc(Cl)c(C(F)(F)F)c4)cc3)ccn2)cc1 (stereo partly shown)"
units_symbol = "mg/kg"
assay_result = 300

[[record]]
compound = "CNC(=O)c1cc(Oc2ccc(NC(=O)Nc3ccc(Cl)c(C(F)(F)F)c3)cc2)ccn1 [Sorafenib, reference compound]"
units_symbol = "mg/kg"
assay_result = 11


====

# System: CT26 tumor cells
# protocol-summary: CT26 treatment model (Example 17)
# Assay type: in vivo, mice
# recorded-conditions: CT26 model as in Example 15
experimental-endpoint: Tumor inhibition rate/% (at week 7)

[[record]]
compound = "CNC(=O)c1cc(Oc2ccc(NC(=O)Nc3ccc(Cl)c(C(F)(F)F)c3)cc2)ccn1 [Sorafenib, reference compound]"
target = "CT26 tumor cells"
experimental_endpoint = "Tumor inhibition rate/% (at week 7)"
assay_result = "15.7%"

[[record]]
compound = "COc1cccc2c1C(=O)c1c(O)c3c(c(O)c1C2=O)C[C@](O)(C(=O)CO)CC3OC1C[C@H](NC(=O)OCc2ccc(NC(=O)C(CC(N)=O)NC(=O)C(C)NC(=O)C(NC(=O)[C@H](O)[C@H](O)[C@@H](O[C@@H]3O[C@H](CO)[C@H](O)[C@H](O)[C@H]3O)[C@H](O)CO)C(C)C)cc2)[C@H](O)[C@H](C)O1 (stereo partly shown)"
target = "CT26 tumor cells"
experimental_endpoint = "Tumor inhibition rate/% (at week 7)"
assay_result = "66.7%"

[[record]]
compound = "CC(NC(=O)C(NC(=O)[C@H](O)[C@H](O)[C@@H](O[C@@H]1O[C@H](CO)[C@H](O)[C@H](O)[C@H]1O)[C@H](O)CO)C(C)C)C(=O)NC(CC(N)=O)C(=O)Nc1ccc(COC(=O)Nc2nccc(-c3sc(C(C)(C)C)nc3-c3cccc(NS(=O)(=O)c4c(F)cccc4F)c3F)n2)cc1 (stereo partly shown)"
target = "CT26 tumor cells"
experimental_endpoint = "Tumor inhibition rate/% (at week 7)"
assay_result = "76.7%"

[[record]]
compound = "C[C@H](NC(=O)[C@@H](NC(=O)[C@H](O)[C@@H](O)[C@H](O[C@@H]1O[C@H](CO)[C@H](O)[C@H](O)[C@H]1O)[C@H](O)CO)[C@@H](C)O)C(=O)N[C@@H](CC(N)=O)C(=O)Nc1ccc(COC(=O)Nc2nccc(-c3sc(C(C)(C)C)nc3-c3cccc(NS(=O)(=O)c4c(F)cccc4F)c3F)n2)cc1"
target = "CT26 tumor cells"
experimental_endpoint = "Tumor inhibition rate/% (at week 7)"
assay_result = "71.6%"


====

# protocol-summary: MTD (maximum tolerated dose) acute toxicity in mice
# Assay type: in vivo, mouse
# recorded-conditions: female, mouse, in vivo; BALB/C mice, intravenous, observed 17 days
Each entry below carries its recorded MTD at 17 days.
experimental-endpoint: MTD at 17 days (mg/kg)

[[record]]
compound = "CC(NC(=O)C(NC(=O)[C@H](O)[C@H](O)[C@@H](O[C@@H]1O[C@H](CO)[C@H](O)[C@H](O)[C@H]1O)[C@H](O)CO)C(C)O)C(=O)NC(CC(N)=O)C(=O)Nc1ccc(COC(=O)N2CC(C)(C)c3ccc(NC(=O)c4cccnc4NCc4ccncc4)cc32)cc1 (stereo partly drawn) [Compound S18]"
assay_result = 280

[[record]]
compound = "COc1cccc2c1C(=O)c1c(O)c3c(c(O)c1C2=O)C[C@](O)(C(=O)CO)CC3OC1C[C@H](NC(=O)OCc2ccc(NC(=O)C(CC(N)=O)NC(=O)C(C)NC(=O)C(C)NC(=O)[C@H](O)[C@H](O)[C@@H](O[C@@H]3O[C@H](CO)[C@H](O)[C@H](O)[C@H]3O)[C@H](O)CO)cc2)[C@H](O)[C@H](C)O1 (stereo partly drawn) [Compound S3, Lacto-AAN-PABC-Adriamycin]"
assay_result = 100

[[record]]
compound = "CC(NC(=O)C(NC(=O)[C@H](O)[C@H](O)[C@@H](O[C@@H]1O[C@H](CO)[C@H](O)[C@H](O)[C@H]1O)[C@H](O)CO)C(C)O)C(=O)NC(CC(N)=O)C(=O)Nc1ccc(COC(=O)Nc2c(-c3nc4ccc(N5CCN(C)CC5)cc4[nH]3)c(=O)[nH]c3cccc(F)c23)cc1 (stereo partly drawn) [Compound S17]"
assay_result = 290


====

# System: CT26 tumor cells
# protocol-summary: CT26 immunotherapy model (Example 15)
# Format: in vivo, mice
# recorded-conditions: IV ⅓ MTD once a week, 6 weeks
Listed molecules paired with reported Tumor inhibition rate % (Day 42)
experimental-endpoint: Tumor inhibition rate % (Day 42) (%)

[[record]]
molecule = "COc1cccc2c1C(=O)c1c(O)c3c(c(O)c1C2=O)C[C@@](O)(C(=O)CO)C[C@@H]3O[C@H]1C[C@H](N)[C@H](O)[C@H](C)O1 [Adriamycin, reference compound]"
units_symbol = "%"
assay_result = 24.5

[[record]]
molecule = "CC(NC(=O)C(C)NC(=O)[C@H](O)[C@H](O)[C@@H](O[C@@H]1O[C@H](CO)[C@H](O)[C@H](O)[C@H]1O)[C@H](O)CO)C(=O)NC(CC(N)=O)C(=O)Nc1ccc(COC(=O)N(C)CCNC(=O)c2cc(Oc3ccc(NC(=O)Nc4ccc(Cl)c(C(F)(F)F)c4)c(F)c3)ccn2)cc1 (some centres unmarked)"
units_symbol = "%"
assay_result = 92.4

